Ref: paper PMC5616206

assay: Toxicokinetics of S9229 in the 28-day rat study; format: in vivo, Sprague-Dawley rats; conditions: female, Sprague-Dawley [Crl:CD(SD)], rat, plasma, po, 10 mg/kg, Cmax, Day 28, 10 mg/kg bw, F
MEASUREMENT_KIND: Cmax (ng/mL)
Enter your answer as a number in ng/mL; do not include the unit.

Fill blank: measured Cmax of the compound COC[C@@H](CC(C)C)NC(=O)c1ccc(C)c(C)c1 is ____.
1.3

###

test: Pharmacokinetics of S807 in rats, single iv or oral dose; assay type: in vivo, Sprague-Dawley rats; conditions: female, Sprague-Dawley, rat, plasma, iv, 1 mg/kg
MEASUREMENT_KIND: half-life
Answer format: value, then unit.

What value of measured half-life is listed for CCCC(CCC)NC(=O)c1ccc2c(c1)OCO2 [S807] ?
3.02 h
